# settings: 50 µg protein, pyrethroid 200 µM mixed with equal volume, Tris-HCl pH 7.4, 37°C
endpoint-label: hydrolysis by pooled human liver microsomes (rate group / extent, in words)

compound | val
CC(C)[C@@H](Nc1ccc(C(F)(F)F)cc1Cl)C(=O)OC(C#N)c1cccc(Oc2ccccc2)c1 (some centres unmarked) [tau-Fluvalinate] | low rate
CC(C)[C@H](C(=O)O[C@H](C#N)c1cccc(Oc2ccccc2)c1)c1ccc(Cl)cc1 [Esfenvalerate] | low rate

----------
# study-target: UniProtKB O75469
# Sequence (O75469 whole entry): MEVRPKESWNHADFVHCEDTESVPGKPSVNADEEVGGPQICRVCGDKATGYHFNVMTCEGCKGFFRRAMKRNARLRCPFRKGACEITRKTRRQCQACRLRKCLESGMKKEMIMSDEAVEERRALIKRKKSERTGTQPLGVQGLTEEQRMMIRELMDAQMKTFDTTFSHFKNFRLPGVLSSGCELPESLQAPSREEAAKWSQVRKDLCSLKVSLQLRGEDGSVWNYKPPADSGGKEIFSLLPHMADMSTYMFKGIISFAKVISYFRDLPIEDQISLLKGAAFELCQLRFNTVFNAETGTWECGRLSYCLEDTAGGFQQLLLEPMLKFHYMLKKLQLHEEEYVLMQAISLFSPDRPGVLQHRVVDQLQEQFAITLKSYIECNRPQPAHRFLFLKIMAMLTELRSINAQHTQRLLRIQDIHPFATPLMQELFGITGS
# measurement-notes: Activation of human PXR in stable line hPXR-HRE
# settings: 10 µM, 24 h, ratio over DMSO
Attribute: activation of human PXR

molecule | activation of human PXR
CC(C)[C@@H](Nc1ccc(C(F)(F)F)cc1Cl)C(=O)OC(C#N)c1cccc(Oc2ccccc2)c1 (some centres unmarked) [tau-Fluvalinate] | 3.5 fold

Now examine the next entry.
Exercise: UniProtKB O75469 / activation of human PXR / "CC(C)=C[C@@H]1[C@@H](C(=O)OCc2coc(Cc3ccccc3)c2)C1(C)C" : value?
Solution: 1.5 fold
